biological target: Rabbit skeletal myosin; test: Skeletal muscle myosin II actin-activated ATPase assay; conditions: 20 nM skeletal muscle myosin II; read-out: SKMMII KI
Property name: pKi
Quick note: pKi values are minus log10 of concentrations in mol/L.

>>> df
                                   compound           system_tested  recorded_number
0  CCc1cc2c(s1)N=C1N(c3ccc4ccoc4c3)CC[C@@]1(O)C2=O [BPN-0026749]  Rabbit skeletal myosin             4.64
1  Cc1sc2c(c1C)C(=O)[C@]1(O)CCN(c3ccc4ncccc4c3)C1=N2 [BPN-0027376]  Rabbit skeletal myosin             5.17
2  Cc1cc2c(cc1C)C(=O)[C@]1(O)CCN(c3cnc(C)c(C)c3)C1=N2 [BPN-0028694]  Rabbit skeletal myosin             5.77

Just so you know, measured pKi for Cc1cc2c(s1)C(=O)[C@]1(O)CCN(c3ccc(C#N)c(C)c3)C1=N2 [BPN-0027072] came out at 5.30

Just so you know, measured pKi for Cc1cc2c(cc1C)C(=O)[C@]1(O)CCN(c3cnc4c(c3)OCCN4)C1=N2 [BPN-0028821] came out at 6.11

Just so you know, measured pKi for CCC1=CC2N=C3N(c4ccc5ncccc5c4)CC[C@@]3(O)C(=O)C2S1 (stereo partly shown) [BPN-0028625] came out at 5.05

====

biological target: Bovine cardiac myosin (Bos taurus (Bovine), UniProt Q9BE39); experiment: Cardiac muscle myosin II actin-activated ATPase assay (NADH-coupled); format: biochemical; conditions: cardiac myosin II Ki over nonmuscle myosin II EC50
Sequence (Q9BE39 whole entry): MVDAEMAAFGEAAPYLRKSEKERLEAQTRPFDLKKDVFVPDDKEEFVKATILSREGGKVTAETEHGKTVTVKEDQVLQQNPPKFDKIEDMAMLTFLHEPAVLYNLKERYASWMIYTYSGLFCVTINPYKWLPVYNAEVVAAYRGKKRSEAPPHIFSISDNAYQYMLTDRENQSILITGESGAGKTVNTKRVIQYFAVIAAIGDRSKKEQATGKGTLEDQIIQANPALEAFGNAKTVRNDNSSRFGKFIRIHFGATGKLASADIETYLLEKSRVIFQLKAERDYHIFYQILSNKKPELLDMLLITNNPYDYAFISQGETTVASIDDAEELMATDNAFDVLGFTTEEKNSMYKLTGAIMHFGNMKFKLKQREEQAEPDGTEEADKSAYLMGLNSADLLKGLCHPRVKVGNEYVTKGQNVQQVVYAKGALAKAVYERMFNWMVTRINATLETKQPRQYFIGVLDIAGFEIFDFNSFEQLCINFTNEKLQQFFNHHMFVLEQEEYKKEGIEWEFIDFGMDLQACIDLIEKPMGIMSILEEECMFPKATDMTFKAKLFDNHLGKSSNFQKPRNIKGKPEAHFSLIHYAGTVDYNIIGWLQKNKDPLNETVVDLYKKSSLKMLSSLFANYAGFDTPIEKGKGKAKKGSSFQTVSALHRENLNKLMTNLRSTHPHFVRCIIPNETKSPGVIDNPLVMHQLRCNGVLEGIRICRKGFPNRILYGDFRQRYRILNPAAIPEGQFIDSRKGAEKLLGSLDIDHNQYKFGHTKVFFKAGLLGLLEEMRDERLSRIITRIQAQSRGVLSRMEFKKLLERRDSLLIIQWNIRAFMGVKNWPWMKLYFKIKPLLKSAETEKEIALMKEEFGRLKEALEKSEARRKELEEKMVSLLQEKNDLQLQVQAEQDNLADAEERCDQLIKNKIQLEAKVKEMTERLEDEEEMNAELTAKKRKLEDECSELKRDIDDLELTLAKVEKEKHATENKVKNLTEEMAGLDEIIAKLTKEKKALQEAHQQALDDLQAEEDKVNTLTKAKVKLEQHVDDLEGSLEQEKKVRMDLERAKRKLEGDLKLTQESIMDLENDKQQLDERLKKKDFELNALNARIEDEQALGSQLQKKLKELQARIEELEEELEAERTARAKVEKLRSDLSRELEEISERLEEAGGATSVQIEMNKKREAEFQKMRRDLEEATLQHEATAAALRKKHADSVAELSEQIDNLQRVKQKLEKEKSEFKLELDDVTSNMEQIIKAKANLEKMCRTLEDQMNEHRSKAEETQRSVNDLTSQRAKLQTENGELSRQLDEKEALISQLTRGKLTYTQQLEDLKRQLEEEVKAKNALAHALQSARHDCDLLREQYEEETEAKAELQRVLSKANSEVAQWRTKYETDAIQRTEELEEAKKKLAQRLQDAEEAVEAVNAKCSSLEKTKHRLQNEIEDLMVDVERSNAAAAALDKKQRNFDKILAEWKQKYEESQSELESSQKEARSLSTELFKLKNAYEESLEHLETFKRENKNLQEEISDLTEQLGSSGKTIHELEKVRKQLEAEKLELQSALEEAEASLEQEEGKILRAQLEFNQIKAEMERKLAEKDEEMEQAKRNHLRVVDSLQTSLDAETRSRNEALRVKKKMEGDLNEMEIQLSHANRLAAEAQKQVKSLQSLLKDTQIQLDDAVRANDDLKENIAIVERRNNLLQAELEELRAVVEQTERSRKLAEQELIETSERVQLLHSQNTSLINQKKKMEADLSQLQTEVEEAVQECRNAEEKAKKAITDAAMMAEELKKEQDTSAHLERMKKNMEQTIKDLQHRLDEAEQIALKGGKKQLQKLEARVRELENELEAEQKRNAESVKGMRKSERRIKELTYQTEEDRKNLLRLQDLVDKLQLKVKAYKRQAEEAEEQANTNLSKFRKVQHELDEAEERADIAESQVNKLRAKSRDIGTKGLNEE
Sequence (P85100 whole entry partner): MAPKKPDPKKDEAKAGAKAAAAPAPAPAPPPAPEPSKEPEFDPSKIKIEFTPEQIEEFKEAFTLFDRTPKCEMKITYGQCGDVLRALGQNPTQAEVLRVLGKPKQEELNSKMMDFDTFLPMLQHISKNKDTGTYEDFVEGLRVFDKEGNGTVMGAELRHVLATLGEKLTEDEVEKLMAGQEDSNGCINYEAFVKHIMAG
Sequence (Q3SZE5 whole entry partner): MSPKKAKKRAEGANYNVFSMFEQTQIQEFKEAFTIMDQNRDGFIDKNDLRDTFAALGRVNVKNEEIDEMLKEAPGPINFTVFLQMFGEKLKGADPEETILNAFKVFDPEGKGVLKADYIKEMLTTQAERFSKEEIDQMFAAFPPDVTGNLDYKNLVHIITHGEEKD
Property name: Ratio CMMII:NMII Ki/EC50
Output: the number by itself.

The following molecules have reported results that may help.
In [3]: df
Out[3]:
                                   molecule  recorded_number
0  Cc1sc2c(c1C)C(=O)[C@]1(O)CCN(c3ccc4ncccc4c3)C1=N2              7.8
1  Cc1nc2cc(N3CC[C@@]4(O)C(=O)c5cc(C)c(C)cc5N=C34)ccc2o1              4.6
2  Cc1cccc(N2CC[C@@]3(O)C(=O)c4cc(C)ccc4N=C23)c1              6.4
3  Cc1cc2c(cc1C)C(=O)[C@]1(O)CCN(c3ccc4c(c3)OCCO4)C1=N2             11.2

Just so you know, measured Ratio CMMII:NMII Ki/EC50 for "CCc1cc2c(s1)N=C1N(c3ccc(C#N)c(C)c3)CC[C@@]1(O)C2=O" came out at 12.3

Just so you know, measured Ratio CMMII:NMII Ki/EC50 for "CCc1cc2c(s1)N=C1N(c3ccc(C)cc3)CC[C@@]1(O)C2=O" came out at 3.4

Just so you know, measured Ratio CMMII:NMII Ki/EC50 for O=C1c2cc(Cl)ccc2NC2N(c3ccc4ccoc4c3)CC[C@@]12O (stereo partly shown) came out at 16.7

Just so you know, measured Ratio CMMII:NMII Ki/EC50 for "Cc1ccc2c(c1)C(=O)[C@]1(O)CCN(c3ccn4nccc4c3)C1=N2" came out at 5.3

====

experiment: Photostability, percentage remaining undegraded under illumination or in the dark; conditions: percentage remaining undegraded in the dark, 24 h
Property name: Photostability Dark (24 h)

The following compounds have reported results that may help.
                            molecule_smiles  result
0  Cc1ncc(N2CC[C@@]3(O)C(=O)c4cc(F)c(C(F)(F)F)cc4N=C23)s1    >99%
1  Cc1ccc2c(c1)C(=O)[C@]1(O)CCN(c3ccc(C)c(Cl)c3)C1=N2    >99%
2  CCc1cc2c(s1)N=C1N(c3ccc(OC)cc3)CC[C@@]1(O)C2=O    >99%
3  Cc1cc2c(cc1C(F)(F)F)N=C1N(c3ccc4ccoc4c3)CC[C@@]1(O)C2=O    >99%
4  O=C1c2cc(Cl)ccc2N=C2N(c3ccc4ccsc4c3)CC[C@@]12O    >99%
5  O=C1c2c(sc3c2CCCC3)N=C2N(c3ccccc3)CC[C@@]12O    >99%

Just so you know, measured Photostability Dark (24 h) for "N#Cc1ccc(N2CC[C@@]3(O)C(=O)c4c(sc5c4CCCC5)N=C23)cc1" came out at >99%
